Sourced from ChEMBL document CHEMBL4819048

Target: Indoleamine 2,3-dioxygenase 1 (Homo sapiens) (UniProt P14902)
Sequence (P14902 whole entry, looked up): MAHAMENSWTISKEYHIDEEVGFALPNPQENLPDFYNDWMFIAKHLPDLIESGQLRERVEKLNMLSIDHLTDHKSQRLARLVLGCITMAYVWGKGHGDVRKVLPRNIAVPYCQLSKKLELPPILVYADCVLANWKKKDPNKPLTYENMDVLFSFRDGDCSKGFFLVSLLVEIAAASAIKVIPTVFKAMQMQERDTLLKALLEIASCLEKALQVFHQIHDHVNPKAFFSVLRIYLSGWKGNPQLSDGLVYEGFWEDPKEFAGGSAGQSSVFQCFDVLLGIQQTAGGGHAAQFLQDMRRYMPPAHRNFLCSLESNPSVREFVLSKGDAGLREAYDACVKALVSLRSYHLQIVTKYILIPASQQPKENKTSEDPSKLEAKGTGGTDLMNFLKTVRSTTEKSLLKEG
Experiment: Inhibition of human IDO1 expressed in HEK293-EBNA cells assessed as reduction in kynurenine formation using tryptophan as substrate at 12.5 uM incubated for 24 hrs by HPLC analysis relative to control
Type: cell-based
Use True when the recorded inhibition is no lower than 20%; use False when it is lower.

Example entries and their recorded answers appear below.
Input Smiles: Cc1ccc(S(=O)(=O)n2ccc3c2C(=O)c2c(c(-c4c[nH]c5ccccc45)cn2C)C3=O)cc1
Group Label: True
--
Input Smiles: Cc1ccc(S(=O)(=O)n2cc3c4c2C(=O)c2[nH]nc(-c5ccccc5)c2C4=NCC3)cc1
Group Label: False
--
Input Smiles: Cc1ccc(S(=O)(=O)n2ccc3c2C(=O)C=C(NCCc2c[nH]c4ccccc24)C3=O)cc1
Group Label: True

Has Cc1ccc(S(=O)(=O)n2cc3c4c2C(=O)c2n[nH]cc2C4=NCC3)cc1 a recorded inhibition greater than or equal to 20%? False

Hi team, for Cc1ccc(S(=O)(=O)n2ccc3c2C(=O)C(NCCc2c[nH]c4ccccc24)=CC3=O)cc1 , is the recorded inhibition at or above 20%? False

Is it the case that Cc1ccc(S(=O)(=O)n2ccc3c2C(=O)c2[nH]c(C(=O)c4c[nH]c5ccccc45)c(C(=O)c4c[nH]c5ccccc45)c2C3=O)cc1 has inhibition reaching or exceeding 20%? True
